experimental-system: human full length HSD11β1 (Homo sapiens, UniProt P28845)
Construct: transient expression of human full length HSD11β1 expression vector
Sequence (P28845 whole entry): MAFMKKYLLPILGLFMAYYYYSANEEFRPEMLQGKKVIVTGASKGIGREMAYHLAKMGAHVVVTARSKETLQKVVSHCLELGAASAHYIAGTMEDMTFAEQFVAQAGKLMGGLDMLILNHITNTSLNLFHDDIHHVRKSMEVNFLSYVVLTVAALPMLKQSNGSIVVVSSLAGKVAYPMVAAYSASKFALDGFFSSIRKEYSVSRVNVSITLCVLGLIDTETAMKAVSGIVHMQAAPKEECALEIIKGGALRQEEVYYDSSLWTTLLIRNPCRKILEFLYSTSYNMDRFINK
assay-info: In Vitro HSD11β1 Inhibition Assay
condition-parameters: CHO cells transiently expressing human HSD11β1; 200 nM cortisone+500 uM NADPH overnight; cortisone to cortisol by LC/MS-MS; read-out: 11βHSD1 (IC50)
property-label: IC50

INSERT INTO assay_data (compound, data_value) VALUES
  ('CC(CC(=O)N1C2CC3CC1CC(O)(C3)C2)c1c(C#N)[nH]c2cccc(C3CC3)c12 (centres unmarked)', '> 250 nM'),
  ('CC(CC(=O)N1C2CC3CC(C2)CC1C3)c1c[nH]c2cccc(N3CCC(C(=O)O)CC3)c12 (centres unmarked)', '> 250 nM'),
  ('O=C(CCc1c[nH]c2ccc(F)cc12)N1C2CC3CC(C2)CC1C3', '> 250 nM'),
  ('O=C(CC(c1c[nH]c2ccccc12)C1CC1)N1C2CC3CC1CC(O)(C3)C2 (centres unmarked)', '> 250 nM'),
  ('CC(CC(=O)N1C2CC3CC1CC(C(=O)O)(C3)C2)c1c[nH]c2cccc(-c3ccc(F)cc3)c12 (centres unmarked)', '> 250 nM'),
  ('Cc1ccc2[nH]cc(C(C)CC(=O)N3C4CC5CC3CC(C#N)(C5)C4)c2c1C (centres unmarked)', '> 250 nM'),
  ('Cc1ccc2[nH]cc(C(C)CC(=O)N3C4CC5CC3CC(O)(C5)C4)c2c1Cl (centres unmarked) [Compound 166]', '< 100 nM'),
  ('Cc1ccc2[nH]cc(C(C)CC(=O)N3C4CC5CC3CC(O)(C5)C4)c2c1 (centres unmarked)', '> 250 nM');

###

experimental-system: human full length HSD11β1 (Homo sapiens, UniProt P28845)
Construct: transient expression of human full length HSD11β1 expression vector
assay-info: In Vitro HSD11β1 Inhibition Assay
condition-parameters: CHO cells transiently expressing human HSD11β1; 200 nM cortisone+500 uM NADPH overnight; cortisone to cortisol by LC/MS-MS; read-out: 11βHSD1 (IC50)
property-label: IC50

INSERT INTO results (compound, experimental_system, data_value) VALUES
  ('Cc1cccc2[nH]cc(C(CC(=O)N3C4CC5CC3CC(O)(C5)C4)c3ccc(F)cc3)c12 (centres unmarked) [Compound 93]', 'human full length HSD11β1 (Homo sapiens, UniProt P28845)', '> 250 nM'),
  ('Cc1ccc2[nH]cc(C(C)CC(=O)N3C4CC5(C)CC3CC(O)(C4)C5)c2c1Cl (centres unmarked) [Compound 219]', 'human full length HSD11β1 (Homo sapiens, UniProt P28845)', '< 100 nM'),
  ('CC(CC(=O)N1C2CC3CC1CC(O)(C3)C2)c1nc2c(Cl)cccc2s1 (centres unmarked) [Compound 120]', 'human full length HSD11β1 (Homo sapiens, UniProt P28845)', '> 250 nM'),
  ('CC(CC(=O)N1C2CC3CC1CC(O)(C3)C2)c1cn(C)c2cccc(Cl)c12 (centres unmarked) [Compound 207]', 'human full length HSD11β1 (Homo sapiens, UniProt P28845)', '100 to 150 nM'),
  ('CC(CC(=O)N1C2CC3CC1CC(Br)(C3)C2)c1c[nH]c2ccc(OS(=O)(=O)C(F)(F)F)cc12 (centres unmarked) [Compound 225]', 'human full length HSD11β1 (Homo sapiens, UniProt P28845)', '> 250 nM'),
  ('CC(CC(=O)N1C2CC3CC1CC(O)(C3)C2)c1c[nH]c2cc(Cl)c(F)cc12 (centres unmarked) [Compound 133]', 'human full length HSD11β1 (Homo sapiens, UniProt P28845)', '100 to 150 nM'),
  ('CC(CC(=O)N1C2CC3CC1CC(CC(=O)O)(C3)C2)c1c[nH]c2cccc(Cl)c12 (centres unmarked) [Compound 145]', 'human full length HSD11β1 (Homo sapiens, UniProt P28845)', '100 to 150 nM'),
  ('CC(CC(=O)N1C2CC3CC1CC(C#N)(C3)C2)c1c[nH]c2nccc(C3CC3)c12 (centres unmarked) [Compound 136]', 'human full length HSD11β1 (Homo sapiens, UniProt P28845)', '< 100 nM');
